As an illustration, consider measured IC50 for molecules on Acetylcholinesterase (Electrophorus electricus, UniProt O42275).
Sequence (O42275 whole entry): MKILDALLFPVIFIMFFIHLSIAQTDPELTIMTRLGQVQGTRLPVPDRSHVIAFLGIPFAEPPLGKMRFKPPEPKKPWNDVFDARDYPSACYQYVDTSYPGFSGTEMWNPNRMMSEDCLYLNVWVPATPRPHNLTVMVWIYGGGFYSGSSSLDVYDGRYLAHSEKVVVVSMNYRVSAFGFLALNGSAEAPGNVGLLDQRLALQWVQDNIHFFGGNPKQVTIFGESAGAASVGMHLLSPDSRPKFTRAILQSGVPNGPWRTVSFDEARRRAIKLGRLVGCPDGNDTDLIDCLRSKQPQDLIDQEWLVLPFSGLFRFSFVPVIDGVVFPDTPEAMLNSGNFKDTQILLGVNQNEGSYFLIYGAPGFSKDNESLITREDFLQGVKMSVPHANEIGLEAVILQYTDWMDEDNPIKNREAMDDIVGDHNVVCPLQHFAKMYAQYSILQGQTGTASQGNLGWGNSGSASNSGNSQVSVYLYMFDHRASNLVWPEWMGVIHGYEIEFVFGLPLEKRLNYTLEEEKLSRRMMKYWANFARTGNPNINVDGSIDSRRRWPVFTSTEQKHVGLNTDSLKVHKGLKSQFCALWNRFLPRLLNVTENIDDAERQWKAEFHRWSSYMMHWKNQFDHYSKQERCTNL

- molecule: "Cc1cccc2c1O[P@@](=O)(OC[C@@H]1C=C[C@H](n3cc(C)c(=O)[nH]c3=O)O1)OC2"
  IC50: "> 50 µM"
- molecule: "Cc1cccc2c1OP(=O)(OC[C@H]1O[C@@H](n3cc(C)c(=O)[nH]c3=O)C[C@@H]1O)OC2 (some centres undefined)"
  IC50: "> 50 µM"
- molecule: "Cc1cccc2c1OP(=O)(OC[C@H]1O[C@@H](n3cc(F)c(=O)[nH]c3=O)C[C@@H]1O)OC2 (some centres undefined)"
  IC50: "> 50 µM"
- molecule: "Cc1cn(C2C=CC(COP3(=O)OCc4cccc(CCC(=O)O)c4O3)O2)c(=O)[nH]c1=O (centres undefined)"
  IC50: "> 50 µM"
